molecular target: RIR +11 (rat insulin receptor, B isoform) (Rattus norvegicus); test: Binding of IM peptides to IR isoform RIR +11; conditions: +11 (B) isoform
Sequence (P15127 27-759 limits assumed): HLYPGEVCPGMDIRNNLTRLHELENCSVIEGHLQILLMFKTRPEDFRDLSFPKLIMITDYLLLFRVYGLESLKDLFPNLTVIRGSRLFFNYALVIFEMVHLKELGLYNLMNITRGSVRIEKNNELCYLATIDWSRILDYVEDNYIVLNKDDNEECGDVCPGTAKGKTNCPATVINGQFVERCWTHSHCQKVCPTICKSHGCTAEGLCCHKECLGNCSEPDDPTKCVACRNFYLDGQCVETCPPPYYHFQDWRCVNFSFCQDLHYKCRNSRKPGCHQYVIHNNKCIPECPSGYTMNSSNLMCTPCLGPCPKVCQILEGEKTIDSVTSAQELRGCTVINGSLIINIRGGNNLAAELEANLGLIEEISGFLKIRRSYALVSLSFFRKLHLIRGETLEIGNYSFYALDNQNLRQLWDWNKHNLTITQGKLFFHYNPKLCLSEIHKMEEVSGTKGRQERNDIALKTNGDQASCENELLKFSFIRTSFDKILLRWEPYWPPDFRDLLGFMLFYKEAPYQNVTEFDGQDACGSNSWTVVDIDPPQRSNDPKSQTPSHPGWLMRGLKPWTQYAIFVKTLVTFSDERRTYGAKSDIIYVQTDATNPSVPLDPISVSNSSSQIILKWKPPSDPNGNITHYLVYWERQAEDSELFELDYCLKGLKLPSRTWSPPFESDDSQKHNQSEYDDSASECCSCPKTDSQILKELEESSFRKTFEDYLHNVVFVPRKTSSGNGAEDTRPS
Sequence (P15127 764-1383 partner limits assumed): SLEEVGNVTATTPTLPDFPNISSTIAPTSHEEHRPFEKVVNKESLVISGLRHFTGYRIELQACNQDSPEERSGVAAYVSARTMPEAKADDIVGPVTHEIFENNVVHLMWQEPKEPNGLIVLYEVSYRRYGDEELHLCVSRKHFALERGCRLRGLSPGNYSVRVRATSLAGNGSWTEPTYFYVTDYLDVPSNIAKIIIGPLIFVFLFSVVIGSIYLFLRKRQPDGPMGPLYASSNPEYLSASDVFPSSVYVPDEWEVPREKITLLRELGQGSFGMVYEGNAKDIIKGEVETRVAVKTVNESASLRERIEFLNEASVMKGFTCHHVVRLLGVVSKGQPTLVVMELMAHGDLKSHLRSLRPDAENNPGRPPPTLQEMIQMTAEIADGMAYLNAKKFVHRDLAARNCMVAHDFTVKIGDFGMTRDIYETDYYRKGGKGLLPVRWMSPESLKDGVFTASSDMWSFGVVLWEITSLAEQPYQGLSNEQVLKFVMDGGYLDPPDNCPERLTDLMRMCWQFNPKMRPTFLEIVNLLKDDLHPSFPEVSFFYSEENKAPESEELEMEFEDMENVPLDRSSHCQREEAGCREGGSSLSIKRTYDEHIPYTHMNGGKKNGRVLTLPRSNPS
endpoint: relative affinity RIR +11
Respond numerically, and do not add a unit to the figure.

SLEEEWAQIECEVWGRGCPSEGFYNAIELLS [compound 726] = 7.7
SLEEEWAQIQCEVWGRGCPSESFYGWFERQLG [compound 733] = 211

Prompt: Give relative affinity RIR +11; test system RIR +11 (rat insulin receptor, B isoform) (Rattus norvegicus); substance SLEEEWAQIQCEVWGRGCPSESFYDWFERQL [compound 636]
Response: 79

Prompt: Give relative affinity RIR +11; test system RIR +11 (rat insulin receptor, B isoform) (Rattus norvegicus); substance SLEEEWAQIQCEVWGRGCPSESFYGWFERQL [compound 667]
Response: 112

Prompt: Give relative affinity RIR +11; test system RIR +11 (rat insulin receptor, B isoform) (Rattus norvegicus); substance SLEEEWAQIECEVYGRGCPSVRGFQGGTVWPGYEWLRNAAKK [compound 626]
Response: 12

Prompt: Give relative affinity RIR +11; test system RIR +11 (rat insulin receptor, B isoform) (Rattus norvegicus); substance SLEEEWAQIEAEVWGRGAPSESFYDWFERQLG [S574]
Response: 2
